pKd values for the binders below.
- Test system: T1, human ApoC3 (huApoC3), native protein purified from human serum (human, UniProt P02656 21-99)
- T1 construct: Athens Research and Technology; randomly biotinylated in some assays; also called Apolipoprotein C3
- T1 sequence (P02656 21-99): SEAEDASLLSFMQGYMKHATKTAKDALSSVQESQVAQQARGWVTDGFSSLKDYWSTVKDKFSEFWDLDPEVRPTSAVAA
- Protocol text: SPR Biacore, huApoC3 on chip, scFv-Fc as analyte
Remember the convention: pKd equals -log10 of concentration in molar.

{"Binder": "10B6 scFv-Fc (Fc fusion, scFv-Fc format) VH: EVQLVESGGGLVQPGGSLRLSCAASGFTFSSYAMRWVRQAPGKGLEWISSINIDGGSTRYTDSVQGRFTVSRDNAKNTLYLQMNNLKPEDTGIYYCTIQGYIYWGQGTQVTVSS VL: ATMLTQSPGSLSIVPGESASISCKASQSLVHSNGVIYFYWLLQKPGQSPQRLIYQVSNRDSGVPDRFTGSGSGTDFTLKISGVKAEDAGVYYCAQGTYYPHSFGSGTRLQIK", "Measurement type": "pKd", "Value reported": 9.41}
{"Binder": "5A11 scFv-Fc (Fc fusion, scFv-Fc format) VH: QVQVQESGPGLVKPSQTLSLTCTVSGVSITTRYYAWSWIRQPPGKGLEWMGVIAYDGSTYYSPSLKSRTSISRDTSKNQFSLQLTSVTPEDTAVYYCARVRLIEAPYEYDYWGQGTQVTVSS VL: QAVVTQEPSLSVSPGGTVTLTCGLSSGSVTTRSYPGWFQQTPGQAPRSLIHSTSSRHSGIPTRFSGSISGNKAALTITGAQPEDEADYYCALDIGSYIVFGGGTHLTVL", "Measurement type": "pKd", "Value reported": 9.33}

// returns reported pKd for input 6A6 scFv-Fc (Fc fusion, scFv-Fc format) VH: EVQLVESGGGLVQPGGSLRLSCAASGFTFSSYAGRWVRQVPGKGLEWVSSINAGGGSTSYADSVKGRFTISRDNAKNTLYLQMNSLKPEDTAKYYCTQNSYRYWGQGTRVAVSS VL: DVVLTQTPGSLSVVPGESASISCKASQSLIHTDGKTYLYWLLQKPGQRPQLLIYQVSSHESGVPDRFTGSGSGTDFTLKISGVKAEDAGVYYCAQATYNPRTFGQGTKLEIK
9.81
